Task for the reader: assign each of the following variants its reported self-cleavage.
B1: CPEB3 Ribozyme (parent)
chain: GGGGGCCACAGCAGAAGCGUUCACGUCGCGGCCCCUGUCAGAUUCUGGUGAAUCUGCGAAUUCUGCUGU

Variants of: B1
Experiment: self-cleavage, relative activity (ratio to wild type); higher = more cleavage; co-transcriptional
One number for each entry.

GGGGGCCACAGCAGAAGCGUUCGCGUCGCGGCCCCUGUAAGAUUCUGGUGAAUCUGCGAAUUCUGCUGU [A23G C39A]; 0.785
GGGGGCCACAGCAGAAGCGUUCACGUCGCGGCCCCUGUCAGAUUCUGGUGAAUCUGCGUAGUCUGCUGU [A59U U61G]; 0.512
GGGGGCCACAGCAGAAGCGUUCACGUCGCGGCCCCUGUCAGGUUCUGGUGCAUCUGCGAAUUCUGCUGU [A42G A51C]; 0.672
GGGGGCCACAGCAGAAGCGUUCACGUCGCGGCCCCUGACAGAUUGUGGUGAAUCUGCGAAUUCUGCUGU [U38A C45G]; 0.902
GGGGGCCACAGCAGCAGCGUUCACGUCGCGCCCCCUGUCAGAUUCUGGUGAAUCUGCGAAUUCUGCUGU [A15C G31C]; 0.27

Items follow; give self-cleavage for each.
1. GGGGGCCACACCAGAAGCGUUCACGUCGCGGCCCCUGUCAGAUUCUGGUGAGUCUGCGAAUUCUGCUGU [G11C A52G]
2. GGGGGCCACAGCAGAAGCGUUCACGUCGCGGCUCCUGUCAGAUUCUUGUGAAUCUGCGAAUUCUGCUGU [C33U G47U]

### Response
0.838
0.985
